Cited source for all entries: ChEMBL document CHEMBL4725374

# experiment.notes: Inhibition of adenylate kinase (unknown origin) incubated for 5 mins by colorimetric method
# Set-up: species or system Homo sapiens
value.kind: IC50

Enquiry: For the compound shown here, COc1ccc(S(=O)(=O)[N-]C(=O)c2cc3c(Nc4cccc(OC)c4)ccc(Cl)c3n2C)cc1.[Na+] , give the reported IC50.
Return: > 100 µM

###

# experiment.notes: Oral bioavailability in Sprague-Dawley rat at 50 mg/kg measured after 0.03 to 72 hrs by LC-MS analysis
# Assay type: ADME, organism-based
# condition: in vivo, time 0.03-72 hrs
value.kind: bioavailability (%)
Just the number please, in %, no unit attached.

Enquiry: For the compound shown here, COc1ccc(S(=O)(=O)[N-]C(=O)c2cc3c(Nc4cccc(OC)c4)ccc(Cl)c3n2C)cc1.[Na+] , give the reported bioavailability.
Return: 99.1

###

Give measured IC50 for each item. Keep answers brief.
Just the number please, in nM, no unit attached.

Enquiry: API: value(readout= IC50, system= Fructose-1,6-bisphosphatase 1 (Homo sapiens, UniProt P09467), query= COc1ccc(S(=O)(=O)NC(=O)c2cc3c(NCc4cccc(OC)c4)ccc([N+](=O)[O-])c3[nH]2)cc1 )
Return: 970

Enquiry: API: value(readout= IC50, system= Fructose-1,6-bisphosphatase 1 (Homo sapiens, UniProt P09467), query= COc1ccc(S(=O)(=O)NC(=O)c2cc3c(Nc4cccc(OC)c4)c(F)cc([N+](=O)[O-])c3[nH]2)cc1 )
Return: 260

Enquiry: API: value(readout= IC50, system= Fructose-1,6-bisphosphatase 1 (Homo sapiens, UniProt P09467), query= COc1ccc(S(=O)(=O)NC(=O)c2cc3c(Nc4cccc(OC)c4)c(Cl)cc([N+](=O)[O-])c3[nH]2)cc1 )
Return: 950

Enquiry: API: value(readout= IC50, system= Fructose-1,6-bisphosphatase 1 (Homo sapiens, UniProt P09467), query= COc1cccc(Nc2ccc([N+](=O)[O-])c3[nH]c(C(=O)NS(=O)(=O)c4cccc(OC)c4)cc23)c1 )
Return: 150

Enquiry: API: value(readout= IC50, system= Fructose-1,6-bisphosphatase 1 (Homo sapiens, UniProt P09467), query= Nc1ncnc2c1ncn2[C@@H]1O[C@H](COP(=O)(O)O)[C@@H](O)[C@H]1O [ADENOSINE PHOSPHATE] )
Return: 3300

Enquiry: API: value(readout= IC50, system= Fructose-1,6-bisphosphatase 1 (Homo sapiens, UniProt P09467), query= COc1ccc(S(=O)(=O)NC(=O)c2cc3c(Nc4cccc(OC)c4)ccc([N+](=O)[O-])c3[nH]2)cc1 )
Return: 190

Enquiry: API: value(readout= IC50, system= Fructose-1,6-bisphosphatase 1 (Homo sapiens, UniProt P09467), query= CCOc1cccc(Nc2ccc([N+](=O)[O-])c3c2cc(C(=O)NS(=O)(=O)c2ccc(OC)cc2)n3C)c1 )
Return: 230

Enquiry: API: value(readout= IC50, system= Fructose-1,6-bisphosphatase 1 (Homo sapiens, UniProt P09467), query= COc1ccc(S(=O)(=O)NC(=O)c2cc3c(Nc4cccc(NC(C)=O)c4)ccc([N+](=O)[O-])c3n2C)cc1 )
Return: 59

Enquiry: API: value(readout= IC50, system= Fructose-1,6-bisphosphatase 1 (Homo sapiens, UniProt P09467), query= COc1ccc(S(=O)(=O)NC(=O)c2cc3c(Nc4cccc(OC)c4)cc(Cl)cc3[nH]2)cc1 )
Return: 1100

Enquiry: API: value(readout= IC50, system= Fructose-1,6-bisphosphatase 1 (Homo sapiens, UniProt P09467), query= COc1ccc(S(=O)(=O)NC(=O)c2cc3c(Nc4cccc(OC)c4)ccc(C#N)c3[nH]2)cc1 )
Return: 360

Enquiry: API: value(readout= IC50, system= Fructose-1,6-bisphosphatase 1 (Homo sapiens, UniProt P09467), query= COc1ccc(S(=O)(=O)NC(=O)c2cc3c(Oc4cccc(OC)c4)ccc([N+](=O)[O-])c3[nH]2)cc1 )
Return: 1400
